target-entity: h-GABA-A α2β2γ1 (Homo sapiens (Human), UniProt P47869+Q8N1C3)
assay-details: Two-electrode voltage clamp electrophysiology in Xenopus oocytes expressing GABAA receptors
Assay type: cell-based
recorded-conditions: Xenopus oocytes, GABA EC20, compound at about 30-fold its Ki α2β2γ1
Procedure: Xenopus Oocytes Preparation Xenopus laevis oocytes at maturation stages V-VI were used for the expression of cloned mRNA encoding GABAA receptor subunits. Oocytes ready for RNA micro-injection were bought from Ecocyte, Castrop-Rauxel, Germany and stored in modified Barth's medium (composition in mM: NaCl 88, KCl 1, NaHCO3 2.4, HEPES 10, MgSO4 0.82, CaNO3 0.33, CaCl2 0.33, pH=7.5) at 20° C. until the experiment. […]
Cut-off 2 on Fold increase h-GABA-A α2β2γ1 oocyte @ 30-fold Ki: below means True, at or above means False.

Example entries begin here.
compound	category
[2H]C1([2H])OCc2c(sc3c2C(c2c(F)cccc2F)=N[C@@H](C)c2nc(C(=O)N4CCC4)nn2-3)OC1([2H])[2H]	True
Cc1nnc2n1-c1sc3c(c1C(c1c(F)cccc1F)=N[C@H]2C)COCCO3	False
Cc1nnc2n1-c1sc3c(c1C(c1c(F)cccc1F)=N[C@H]2C)CCCC[C@H]3F (single isomer, unassigned)	True
C[C@@H]1N=C(c2c(F)cccc2F)c2c(sc3c2COCCO3)-n2c(C3CC3)nnc21	True
C[C@@H]1N=C(c2c(F)cccc2F)c2c(sc3c2COCCC3)-n2nc(C(=O)N[C@H]3C[C@H](O)C3)nc21	False

Ask: Answer whether the compound "C[C@@H]1N=C(c2c(F)cccc2F)c2c(sc3c2COCCO3)-n2nc(C(=O)N3CC(F)C3)nc21" has Fold increase h-GABA-A α2β2γ1 oocyte @ 30-fold Ki strictly less than 2
Reply: True

Ask: Answer whether the compound Cc1nnc2n1-c1sc3c(c1C(c1c(F)cccc1F)=N[C@H]2C)CCCC(O)C3 (mixture of isomers) has Fold increase h-GABA-A α2β2γ1 oocyte @ 30-fold Ki strictly less than 2
Reply: True

---

target-entity: human GABAA α2β2γ1 receptor (Homo sapiens (Human), UniProt P47869+Q8N1C3)
assay-details: Radioligand binding assay, competition for [3H]RO7239181, γ1-containing GABAA subtypes
recorded-conditions: Ki h-GABAA α2β2γ1, membranes of HEK293F cells, [3H]RO7239181 20-30 nM, Table 1
observation-type: Ki (nM)
Give bare numbers, in nM.

compound	Ki, nM
Cc1nnc2n1-c1sc3c(c1C(c1c(F)cccc1F)=N[C@H]2C)COCC[C@H]3F	35.8
Cc1nc2n(n1)-c1sc3c(c1C(c1c(F)cccc1F)=N[C@H]2C)COC[C@H](C)O3	57.8
Cc1cn2c(n1)[C@H](C)N=C(c1c(F)cccc1F)c1c-2sc2c1COCCC2	25

Next, consider the following compound.
Ask: I am curious: what Ki value has been reported for Cc1nnc2n1-c1sc3c(c1C(c1c(F)cccc1F)=N[C@H]2C)CCCC(O)C3 (mixture of isomers) ?
Reply: 15.1

---

Assignment: determine reported pKi for the given molecules.
target-entity: human GABAA α2β2γ1 receptor (Homo sapiens (Human), UniProt P47869+Q8N1C3)
assay-details: Radioligand binding assay, competition for [3H]RO7239181, γ1-containing GABAA subtypes
recorded-conditions: Ki h-GABAA α2β2γ1, membranes of HEK293F cells, [3H]RO7239181 20-30 nM, Table 2
Numbers only, as −log10 of the molar value.

molecule	pKi
C[C@@H]1N=C(c2c(F)cccc2F)c2c(sc3c2COCCO3)-n2nc(C(=O)NCC3(O)CC3)nc21	7.63
Cc1nnc2n1-c1sc3c(c1C(c1c(F)cccc1Cl)=N[C@H]2C)COCCC3	7.69
Cc1nc2n(n1)-c1sc3c(c1C(c1c(F)cccc1F)=N[C@H]2C)COCCC3	8.14
C[C@@H]1N=C(c2c(F)cccc2F)c2c(sc3c2COC[C@H](C)O3)-n2nc(C(=O)N3CC(F)C3)nc21	7.69
Cc1nnc2n1-c1sc3c(c1C(c1c(F)cccc1F)=N[C@H]2C)CCCC[C@H]3F (single isomer, unassigned)	7.76

// batch mode: one pKi value per listed entry
1. CC(C)c1nnc2n1-c1sc3c(c1C(c1c(F)cccc1F)=N[C@H]2C)COCCO3
2. [2H]C1([2H])OCc2c(sc3c2C(c2c(F)cccc2F)=N[C@@H](C)c2nc(C(=O)NCC)nn2-3)OC1([2H])[2H]

Reply:
7.54
7.75

---

target-entity: h-GABA-A α2β2γ1 (Homo sapiens (Human), UniProt P47869+Q8N1C3)
assay-details: Two-electrode voltage clamp electrophysiology in Xenopus oocytes expressing GABAA receptors
Assay type: cell-based
recorded-conditions: Xenopus oocytes, GABA EC20, compound at about 30-fold its Ki α2β2γ1
Cut-off 2 on Fold increase h-GABA-A α2β2γ1 oocyte @ 30-fold Ki: below means y, at or above means n.

compound	category
Cc1nc2n(n1)-c1sc3c(c1C(c1c(F)cccc1F)=N[C@H]2C)CCCCC3 [Example 20]	y

Ask: Answer whether the compound Cc1nnc2n1-c1sc3c(c1C(c1c(F)cccc1F)=N[C@H]2C)CC[C@@H](F)CO3 [Example 56] has Fold increase h-GABA-A α2β2γ1 oocyte @ 30-fold Ki strictly less than 2
Reply: n

Ask: Answer whether the compound C[C@@H]1N=C(c2c(F)cccc2F)c2c(sc3c2COC[C@H](C)O3)-n2nc(C(=O)NCCO)nc21 [Example 53] has Fold increase h-GABA-A α2β2γ1 oocyte @ 30-fold Ki strictly less than 2
Reply: n

Ask: Answer whether the compound C[C@@H]1N=C(c2c(F)cccc2F)c2c(sc3c2CCCCC3)-n2c(C3CC3)nnc21 [Example 3] has Fold increase h-GABA-A α2β2γ1 oocyte @ 30-fold Ki strictly less than 2
Reply: y

Ask: Answer whether the compound C[C@@H]1N=C(c2c(F)cccc2F)c2c(sc3c2COCCO3)-n2cc(C(=O)NCC3(O)CC3)nc21 [Example 65] has Fold increase h-GABA-A α2β2γ1 oocyte @ 30-fold Ki strictly less than 2
Reply: n

Ask: Answer whether the compound C[C@@H]1N=C(c2c(F)cccc2F)c2c(sc3c2COCCC3)-n2nc(C(=O)NC[C@@](C)(O)C(F)(F)F)nc21 [Example 70] has Fold increase h-GABA-A α2β2γ1 oocyte @ 30-fold Ki strictly less than 2
Reply: n

Ask: Answer whether the compound C[C@@H]1N=C(c2c(F)cccc2F)c2c(sc3c2CCCCC3)-n2c(-c3cccnn3)nnc21 [Example 4] has Fold increase h-GABA-A α2β2γ1 oocyte @ 30-fold Ki strictly less than 2
Reply: n

Ask: Answer whether the compound Cc1nnc2n1-c1sc3c(c1C(c1c(F)cccc1F)=N[C@H]2C)CC[C@@H](F)CC3 (single isomer, unassigned) [Example 15] has Fold increase h-GABA-A α2β2γ1 oocyte @ 30-fold Ki strictly less than 2
Reply: n

Ask: Answer whether the compound Cc1nnc2n1-c1sc3c(c1C(c1c(F)cccc1F)=NC2)CCCCC3 [Example 1] has Fold increase h-GABA-A α2β2γ1 oocyte @ 30-fold Ki strictly less than 2
Reply: y

Ask: Answer whether the compound C[C@@H]1N=C(c2c(F)cccc2F)c2c(sc3c2COCCC3)-n2cc(C(=O)NCC(C)(C)O)nc21 [Example 67] has Fold increase h-GABA-A α2β2γ1 oocyte @ 30-fold Ki strictly less than 2
Reply: n

Ask: Answer whether the compound CCNC(=O)c1nc2n(n1)-c1sc3c(c1C(c1c(F)cccc1F)=N[C@H]2C)COCCO3 [Example 37] has Fold increase h-GABA-A α2β2γ1 oocyte @ 30-fold Ki strictly less than 2
Reply: y

Ask: Answer whether the compound Cc1cn2c(nc1=O)[C@H](C)N=C(c1c(F)cccc1F)c1c-2sc2c1CCCCC2 [Example 26] has Fold increase h-GABA-A α2β2γ1 oocyte @ 30-fold Ki strictly less than 2
Reply: n

Ask: Answer whether the compound Cc1nnc2n1-c1sc3c(c1C(c1c(F)cccc1F)=N[C@H]2C)CCCCC3 [Example 2] has Fold increase h-GABA-A α2β2γ1 oocyte @ 30-fold Ki strictly less than 2
Reply: y

Ask: Answer whether the compound C[C@@H]1N=C(c2c(F)cccc2F)c2c(sc3c2COCCO3)-n2nc(C(=O)NC[C@](C)(O)C(F)(F)F)nc21 [Example 47] has Fold increase h-GABA-A α2β2γ1 oocyte @ 30-fold Ki strictly less than 2
Reply: y

---

target-entity: h-GABA-A α2β2γ1 (Homo sapiens (Human), UniProt P47869+Q8N1C3)
assay-details: Two-electrode voltage clamp electrophysiology in Xenopus oocytes expressing GABAA receptors
Format: cell-based
recorded-conditions: Xenopus oocytes, GABA EC20, compound at about 30-fold its Ki α2β2γ1
Assignment: determine reported Fold increase h-GABA-A α2β2γ1 oocyte @ 30-fold Ki for the given compounds.
Answers are plain numbers.

Some compounds with known Fold increase h-GABA-A α2β2γ1 oocyte @ 30-fold Ki results, for comparison:
compound	target-entity	recorded-result
Cc1nnc2n1-c1sc3c(c1C(c1c(F)cccc1F)=N[C@H]2C)CCC[C@H](F)C3 (single isomer, unassigned)	h-GABA-A α2β2γ1 (Homo sapiens (Human), UniProt P47869+Q8N1C3)	2.35
CCc1nc2n(n1)-c1sc3c(c1C(c1c(F)cccc1F)=N[C@H]2C)COC[C@H](C)O3	h-GABA-A α2β2γ1 (Homo sapiens (Human), UniProt P47869+Q8N1C3)	2.31
Cc1nc2n(n1)-c1sc3c(c1C(c1c(F)cccc1F)=N[C@H]2C)COCCO3	h-GABA-A α2β2γ1 (Homo sapiens (Human), UniProt P47869+Q8N1C3)	1.40

Next, consider the following compound.
Ask: I am curious: what Fold increase h-GABA-A α2β2γ1 oocyte @ 30-fold Ki value has been reported for "Cc1nnc2n1-c1sc3c(c1C(c1c(F)cccc1F)=N[C@H]2C)CCCC(F)(F)C3" ?
Reply: 3.03

Origin of measurements: patent US20240294543A1
